Experiment: in vitro
Format: in vitro ADME
Details: serum-containing medium with cells, Percent of total drug 3H as ddCTP
measured metric: remaining at 72 h

Answer with reported remaining at 72 h of Nc1ccn([C@H]2CC[C@@H](COP(=O)(O)OP(=O)(O)OP(=O)(O)O)O2)c(=O)n1 [ddCTP, 2ʹ,3ʹ-dideoxycytidine-5ʹ-triphosphate] 0%

* * *

Experiment: solute release from liposomes at 4°C
Assay type: physicochemical
Details: from liposomes at 4°C in 2 days
# note: exactly 6% is not below, so it is 0.0; use 1.0 for Percent Release strictly under it

Here's what some known entries look like.
- compound: "Nc1ccn([C@H]2CC[C@@H](COP(=O)(O)OP(=O)(O)O)O2)c(=O)n1 [ddCDP, 2ʹ,3ʹ-dideoxycytidine 5ʹ-diphosphate]"
  category: 0.0
- compound: "Nc1nc2c(ncn2[C@H]2CC[C@@H](COP(=O)(O)OP(=O)(O)OP(=O)(O)O)O2)c(=O)[nH]1 [ddGTP, 2ʹ,3ʹ-dideoxyguanosine 5ʹ-triphosphate]"
  category: 1.0
- compound: "Cc1cn([C@H]2CC[C@@H](COP(=O)(O)OP(=O)(O)OP(=O)(O)O)O2)c(=O)[nH]c1=O [ddTTP, 2ʹ,3ʹ-dideoxythymidine 5ʹ-triphosphate]"
  category: 1.0

Given Nc1ccn([C@H]2CC[C@@H](COP(=O)(O)O)O2)c(=O)n1 [ddCMP, 2ʹ,3ʹ-dideoxycytidine 5ʹ-monophosphate] , is recorded Percent Release strictly lower than 6%? 0.0

Given Cc1cn([C@H]2CC[C@@H](CO)O2)c(=O)[nH]c1=O [ddT, dideoxythymidine, reference compound] , is recorded Percent Release strictly lower than 6%? 0.0

Given Nc1ncnc2c1ncn2[C@H]1CC[C@@H](COP(=O)(O)OP(=O)(O)OP(=O)(O)O)O1 [ddATP, 2ʹ,3ʹ-dideoxyadenosine 5ʹ-triphosphate] , is recorded Percent Release strictly lower than 6%? 1.0

* * *

Experiment: trypan blue exclusion test
Type: cell-based
Details: human, 8.e6 and u.1 cells; at all doses; read-out: viable cells (trypan blue exclusion)
measured metric: viability

Answer with reported viability of Nc1ccn([C@H]2CC[C@@H](COP(=O)(O)OP(=O)(O)OP(=O)(O)O)O2)c(=O)n1 [ddCTP, 2ʹ,3ʹ-dideoxycytidine-5ʹ-triphosphate] > 90%

* * *

Assay: in vitro
Type: in vitro ADME
Conditions: serum-containing medium without cells, Percent of total drug 3H as ddCTP
measured metric: remaining at 72 h (%)
Answer with a number only, understood to be in %.

Answer with reported remaining at 72 h of Nc1ccn([C@H]2CC[C@@H](COP(=O)(O)OP(=O)(O)OP(=O)(O)O)O2)c(=O)n1 [ddCTP, 2ʹ,3ʹ-dideoxycytidine-5ʹ-triphosphate] 0

* * *

Experiment: volume of encapsulation in liposomes
Type: physicochemical
Details: freeze-thawed multilamellar EPC/PS/cholesterol liposomes; 8 mM solute
measured metric: Volume of Encapsulation
Value and unit, in that order.

Sample records with Volume of Encapsulation:
- molecule: "Cc1cn([C@H]2CC[C@@H](COP(=O)(O)OP(=O)(O)OP(=O)(O)O)O2)c(=O)[nH]c1=O [ddTTP, 2ʹ,3ʹ-dideoxythymidine 5ʹ-triphosphate]"
  measured metric: "Volume of Encapsulation"
  value reported: "1.61 microliters/micromole EPC"
- molecule: "Nc1ccn([C@H]2CC[C@@H](COP(=O)(O)O)O2)c(=O)n1 [ddCMP, 2ʹ,3ʹ-dideoxycytidine 5ʹ-monophosphate]"
  measured metric: "Volume of Encapsulation"
  value reported: "0.76 microliters/micromole EPC"
- molecule: "Nc1nc2c(ncn2[C@H]2CC[C@@H](COP(=O)(O)OP(=O)(O)OP(=O)(O)O)O2)c(=O)[nH]1 [ddGTP, 2ʹ,3ʹ-dideoxyguanosine 5ʹ-triphosphate]"
  measured metric: "Volume of Encapsulation"
  value reported: "2.74 microliters/micromole EPC"
- molecule: "Nc1ncnc2c1ncn2[C@H]1CC[C@@H](COP(=O)(O)OP(=O)(O)OP(=O)(O)O)O1 [ddATP, 2ʹ,3ʹ-dideoxyadenosine 5ʹ-triphosphate]"
  measured metric: "Volume of Encapsulation"
  value reported: "1.30 microliters/micromole EPC"

Answer with reported Volume of Encapsulation of Cc1cn([C@H]2CC[C@@H](CO)O2)c(=O)[nH]c1=O [ddT, dideoxythymidine, reference compound] 1.29 microliters/micromole EPC

Answer with reported Volume of Encapsulation of Nc1ccn([C@H]2CC[C@@H](COP(=O)(O)OP(=O)(O)O)O2)c(=O)n1 [ddCDP, 2ʹ,3ʹ-dideoxycytidine 5ʹ-diphosphate] 1.26 microliters/micromole EPC
